Assay: Untargeted LC-HRMS metabolite profiling after oral PAC administration
Details: after oral PACs; c = detected in mice plasma
MEASURED_ENDPOINT: Compartment in which the metabolite was detected

[
  {
    "COMPOUND": "Oc1cc(O)c(CC(O)Cc2ccc(O)c(O)c2)c(O)c1 (centres unmarked)",
    "READOUT_VALUE": "Intestine"
  },
  {
    "COMPOUND": "COc1cc(O)cc2oc(-c3cc(O)c(O)c(O)c3)c(O)c(=O)c12",
    "READOUT_VALUE": "Urine"
  },
  {
    "COMPOUND": "O=C(O)[C@H]1O[C@@H](Oc2c(-c3cc(O)c(O)c(O)c3)oc3cc(O)cc(O)c3c2=O)[C@H](O)[C@@H](O)[C@@H]1O [M18, Myricetin 3-O-glucuronide]",
    "READOUT_VALUE": "Intestine"
  },
  {
    "COMPOUND": "COc1cc(C=O)ccc1O[C@@H]1O[C@H](C(=O)O)[C@@H](O)[C@H](O)[C@H]1O [M07, Vanillin glucuronide]",
    "READOUT_VALUE": "Urine"
  },
  {
    "COMPOUND": "Oc1cc(O)c2c(c1)O[C@H](c1cc(O)c(O)c(O)c1)[C@H](O)C2 [M10, Epigallocatechin]",
    "READOUT_VALUE": "Intestine"
  }
]

Query (compound): O=C1CCC(Cc2ccc(O)c(O)c2)O1 (centres unmarked) ; field requested: Compartment in which the metabolite was detected
Intestine

And then Oc1cc(O)c(CC(O)Cc2cc(O)c(O)c(O)c2)c(O)c1 (centres unmarked) , what is it?
Intestine

And then Oc1cc(O)c2c(c1)O[C@H](c1cc(O)c(O)c(O)c1)[C@@H](O)C2 , what is it?
Intestine

---

Each record here notes measured Time points at which the metabolite was detected.
Test: Untargeted LC-HRMS metabolite profiling after oral PAC administration
Conditions: after oral PACs
Description: Animals to be sacrificed at 6 h (only test item-treated animals) were placed in metabolic cages (650-0100, Nalgene) for the collection of urine. Urine was stabilized with a final concentration of 4 mM NaN3 and stored at 4 °C. […] Compound discoverer 3.1 (CD, Thermo Fisher Scientific, Waltham, MA, United States of America) was used for untargeted and novel feature detection. […] Then, unknown compounds were detected and grouped with RT tolerance of 0.5 min and 5 ppm mass deviation. […]
Write down the numeric answer in h and omit the unit.

Examples with their reported Time points at which the metabolite was detected follow.
[
  {
    "COMPOUND": "O=C(O[C@@H]1Cc2c(O)cc(O)cc2O[C@@H]1c1cc(O)c(O)c(O)c1)c1cc(O)c(O)c(O)c1 [M15, Epigallocatechin gallate]",
    "READOUT_VALUE": 1
  },
  {
    "COMPOUND": "COc1cc(O)cc2oc(-c3cc(O)c(O)c(O)c3)c(O)c(=O)c12",
    "READOUT_VALUE": 6
  },
  {
    "COMPOUND": "COc1cc(-c2oc3cc(O)cc(O)c3c(=O)c2O[C@@H]2O[C@H](C(=O)O)[C@@H](O)[C@H](O)[C@H]2O)cc(O)c1O [M19, 5'-O-methyl Myricetin 3-O-glucuronide]",
    "READOUT_VALUE": 1
  },
  {
    "COMPOUND": "O=C1CCC(Cc2cc(O)c(O)c(O)c2)O1 (stereo not drawn)",
    "READOUT_VALUE": 6
  },
  {
    "COMPOUND": "O=C1CCC(Cc2ccc(O)c(O)c2)O1 (stereo not drawn)",
    "READOUT_VALUE": 6
  }
]

Query (compound): Oc1cc(O)c(CC(O)Cc2cc(O)c(O)c(O)c2)c(O)c1 (stereo not drawn) ; field requested: Time points at which the metabolite was detected
6
